B1: EHEE_rd4_0726 (parent)
chain: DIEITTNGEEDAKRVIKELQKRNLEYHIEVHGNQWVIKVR

Variants of: B1
METHOD: folding stability dG (cDNA display proteolysis); higher = more stable
CONDITION NOTES: PBS, room temperature
Use rule met when the recorded folding stability dG is no lower than 2 kcal/mol; use rule not met when it is lower.

# MUTANT DESIGNATION, QUALITATIVE LABEL
data = [
    ("N33R", "rule not met"),
]

Inquiry: API: above_or_equal(metric=folding stability dG, cutoff=2 kcal/mol) for item L24P
Reply text: rule not met

Inquiry: API: above_or_equal(metric=folding stability dG, cutoff=2 kcal/mol) for item K21G
Reply text: rule not met

Inquiry: API: above_or_equal(metric=folding stability dG, cutoff=2 kcal/mol) for item R22H
Reply text: rule met

Inquiry: API: above_or_equal(metric=folding stability dG, cutoff=2 kcal/mol) for item K38R
Reply text: rule met

Inquiry: API: above_or_equal(metric=folding stability dG, cutoff=2 kcal/mol) for item E18C
Reply text: rule met

Inquiry: API: above_or_equal(metric=folding stability dG, cutoff=2 kcal/mol) for item R14A
Reply text: rule met

Inquiry: API: above_or_equal(metric=folding stability dG, cutoff=2 kcal/mol) for item V36A
Reply text: rule not met

Inquiry: API: above_or_equal(metric=folding stability dG, cutoff=2 kcal/mol) for item N33K
Reply text: rule not met

Inquiry: API: above_or_equal(metric=folding stability dG, cutoff=2 kcal/mol) for item E9I
Reply text: rule met

All values here come from the MegaScale stability set (Tsuboyama et al. 2023).
